tested on: PC-3 cells; test: Anti-proliferative MTT assay; format: cell-based; conditions: Homo sapiens, 96 h incubation, mean of three experiments
Parameter Measured: GI50

>  <Smiles Entry>
COc1cc(F)ccc1Nc1ncnc2ccc(NCCCCCCC(=O)NO)nc12

>  <System>
PC-3 cells

>  <GI50>
> 20 µM

$$$$
>  <Smiles Entry>
Nc1ccccc1NC(=O)/C=C/c1ccc(-c2ccc3ncnc(Nc4ccc(F)cc4)c3n2)cc1

>  <System>
PC-3 cells

>  <GI50>
> 20 µM

$$$$

Next compound, please.
Please report the measured GI50 for `Nc1ccccc1NC(=O)CCCCCCNc1ccc2ncnc(Nc3ccc(F)cc3)c2n1`
> 20 µM
